test system: MDA-MB-468; test: Cytotoxicity against human MDA-MB-468 cells after 2 days by sulforhodamine B assay; type: functional; details: MDA-MB-468, 48 h
Reported GI50 values are given for each entry in this list.
PROPERTY MEASURED: GI50 (µM)

In [3]: df
Out[3]:
                           molecular_string  number
0  CC/C(=C(/c1ccc(OCCN(C)C)cc1)c1ccc(OC(=O)CCC(=O)C2=C(C)/C(=C/c3[nH]c(-c4ccc[nH]4)cc3OC)N=C2C)cc1)c1ccccc1    3.06
1  CC/C(=C(/c1ccc(OCCN(C)C)cc1)c1ccc(OC(=O)CCCCCCCCC(=O)C2=C(C)/C(=C/c3[nH]c(-c4ccc[nH]4)cc3OC)N=C2C)cc1)c1ccccc1    3.63
2  CCC(=C(c1ccc(OCCN(C)C)cc1)c1ccc(OC(=O)CCCCC(=O)C2=C(C)/C(=C/c3[nH]c(-c4ccc[nH]4)cc3OC)N=C2C)cc1)c1ccccc1    2.45
3  COc1cc(-c2ccc[nH]2)[nH]c1/C=C1\N=C(C)C(C(=O)CCC(=O)Oc2ccc3c(c2)CC[C@@H]2[C@@H]3CC[C@]3(C)C(=O)CC[C@@H]23)=C1C      17

* * *

The entries below are paired with their reported GI50.
test system: HT-29; test: Cytotoxicity against human HT-29 cells after 2 days by sulforhodamine B assay; format: functional; conditions: HT-29, 48 h
PROPERTY MEASURED: GI50 (nM)

>>> print(df.to_string())
                           molecular_string  property_measured  number
0  CC/C(=C(/c1ccc(OCCN(C)C)cc1)c1ccc(OC(=O)CCC(=O)C2=C(C)/C(=C/c3[nH]c(-c4ccc[nH]4)cc3OC)N=C2C)cc1)c1ccccc1               GI50     440
1  COc1cc(-c2ccc[nH]2)[nH]c1/C=C1\N=C(C)C(C(=O)CCC(=O)Oc2ccc3c(c2)CC[C@@H]2[C@@H]3CC[C@]3(C)C(=O)CC[C@@H]23)=C1C               GI50     870
2  CCC(=C(c1ccc(OCCN(C)C)cc1)c1ccc(OC(=O)CCCCC(=O)C2=C(C)/C(=C/c3[nH]c(-c4ccc[nH]4)cc3OC)N=C2C)cc1)c1ccccc1               GI50    3020
3  CC/C(=C(/c1ccc(OCCN(C)C)cc1)c1ccc(OC(=O)CCCCCCCCC(=O)C2=C(C)/C(=C/c3[nH]c(-c4ccc[nH]4)cc3OC)N=C2C)cc1)c1ccccc1               GI50    5130

* * *

tested on: SK-MEL-5; test: Cytotoxicity against human SK-MEL-5 cells after 2 days by sulforhodamine B assay; type: functional; conditions: SK-MEL-5, 48 h
Listed next: entries and their corresponding LC50 (concentration killing 50% of cells).
PROPERTY MEASURED: LC50 (concentration killing 50% of cells) (µM)

>>> print(df.to_string())
                           molecular_string  number
0  COc1cc(-c2ccc[nH]2)[nH]c1/C=C1\N=C(C)C(C(=O)CCC(=O)Oc2ccc3c(c2)CC[C@@H]2[C@@H]3CC[C@]3(C)C(=O)CC[C@@H]23)=C1C    68.8
1  CCC(=C(c1ccc(OCCN(C)C)cc1)c1ccc(OC(=O)CCCCC(=O)C2=C(C)/C(=C/c3[nH]c(-c4ccc[nH]4)cc3OC)N=C2C)cc1)c1ccccc1    6.03
2  CC/C(=C(/c1ccc(OCCN(C)C)cc1)c1ccc(OC(=O)CCC(=O)C2=C(C)/C(=C/c3[nH]c(-c4ccc[nH]4)cc3OC)N=C2C)cc1)c1ccccc1    5.25
3  CC/C(=C(/c1ccc(OCCN(C)C)cc1)c1ccc(OC(=O)CCCCCCCCC(=O)C2=C(C)/C(=C/c3[nH]c(-c4ccc[nH]4)cc3OC)N=C2C)cc1)c1ccccc1    6.46
